Source listed as PubChem BioAssay (EPA / NIEHS).

# Read-out: E-selectin (Homo sapiens)
# Assay name: BSK_3C_Eselectin: BioMAP Diversity Plus: 3C Assay for Eselectin Biomarker Activity (AID 2283015)
# Settings: primary human endothelial cells (HUVEC); actives raise or lower the signal
Calls of active or inactive are those of the source. The calls were made as follows: active = hit-call score of the fitted dose curve at least 0.9, where 1 is the maximum; inactive = score below 0.9.
Outcomes: yes = active, no = inactive

# Compound, Group
measured = [
    ("Cc1oc2c(NC(=O)c3c(Cl)cccc3Cl)cccc2c1C(C)(C)O", "yes"),
    ("CN(C)C(=O)C1(N2CCCCC2)CCN(CC[C@@]2(c3ccc(Cl)c(Cl)c3)CN(C(=O)c3ccccc3)CCO2)CC1", "yes"),
    ("O=C(OCCCCCCOC(=O)c1ccccc1)c1ccccc1", "no"),
    ("Cc1cc(F)ccc1-c1cc(N2CC[C@@H](O)[C@H]2CO)ncc1N(C)C(=O)C(C)(C)c1cc(C(F)(F)F)cc(C(F)(F)F)c1", "yes"),
    ("O=C(O)c1ccccc1-n1cc(C(=O)O)c(=O)c2cc(Nc3c(F)cc(F)cc3Cl)c(Cl)cc21", "no"),
    ("O=c1ccc2ccccc2o1", "no"),
    ("O=C(O)Cn1c(=O)n(Cc2ccc(Br)cc2F)c(=O)c2ccc(Cl)cc21", "no"),
]

====

# Assay name: ATG_TCF_b_cat_CIS: Attagene CIS-FACTORIAL HepG2 Assay for human T-Cell-Factor with beta-catenin (TCF/b-cat) (AID 2282965)
# Settings: HepG2 TCF/beta-catenin cis-reporter transcription, actives raise or lower the signal
The source made the active and inactive calls. Rule for the calls: active = hit-call score of the fitted dose curve at least 0.9, where 1 is the maximum; inactive = score below 0.9.

# Compound, AC50
data = [
    ("O=c1c(-c2ccc(O)cc2)coc2cc(O)cc(O)c12", "inactive"),
    ("CCN(CC)C(=O)c1cc(S(=O)(=O)Cc2ccccc2)c(N2CCC(c3ccccc3)CC2)cc1N(CC)CCN(C)C", "inactive"),
    ("CCN(Cc1cccc(S(=O)(=O)O)c1)c1ccc(C(=C2C=CC(=[N+](CC)Cc3cccc(S(=O)(=O)O)c3)C=C2)c2ccccc2S(=O)(=O)[O-])cc1", "inactive"),
    ("Cc1ccc2oc(CN(Cc3ccccc3)C(=O)Nc3c(F)cc(F)cc3F)c(-c3ccc(Cl)cc3)c2c1", "inactive"),
    ("CCCCCCCCCCCCO", "inactive"),
    ("CN(C[C@@H](CC[N+]12CCC(C3CCCCC3)(CC1)CC2)c1ccc(Cl)c(Cl)c1)C(=O)c1cc(C(F)(F)F)cc(C(F)(F)F)c1", "inactive"),
    ("CN(C)c1ccc(C(=C2C=CC(=[N+](C)C)C=C2)c2ccc(N(C)C)cc2)cc1", "2.96 µM (active)"),
    ("Cc1ncc(CO)c(CO)c1O", "inactive"),
    ("Cc1cn([C@H]2C[C@H](N=[N+]=[N-])[C@@H](CO)O2)c(=O)[nH]c1=O", "inactive"),
    ("COc1cccc([C@H](O)C2CCN(CCc3ccc(F)cc3)CC2)c1OC", "100 µM (active)"),
    ("CC1(C)NC(=O)N(c2ccc([N+](=O)[O-])c(C(F)(F)F)c2)C1=O", "inactive"),
    ("Oc1ccccc1", "inactive"),
    ("CCN(Cc1cccnc1)C(=O)c1cccc(Cl)c1[C@]1(C)C(=O)N(Cc2ccc(OC)cc2OC)c2ccc(Cl)cc21", "5.44 µM (active)"),
    ("CCCC(=O)OCCC(C)C", "inactive"),
    ("c1ccc2ccccc2c1", "inactive"),
    ("OC12N=C(c3ccccc3)SC1Cc1cc(Cl)ccc12 (configuration not stated)", "inactive"),
    ("COc1cc(C(=O)NC2CCN(C)CC2)ccc1Nc1ncc2c(n1)N(C1CCCC1)CC(F)(F)C(=O)N2C", "4.26 µM (active)"),
    ("CCCOC(=O)c1cc(O)c(O)c(O)c1", "inactive"),
    ("O=C(OCCCCCCOC(=O)c1ccccc1)c1ccccc1", "inactive"),
    ("CCCCCCCCOC(=O)c1cc(O)c(O)c(O)c1", "inactive"),
    ("O=C1CCC(C2CCCCC2)CC1", "inactive"),
    ("CC1=CC(=O)/C(=C(/C)O)C(=O)O1", "inactive"),
]

====

# Read-out: Human Leukocyte Antigen - DR isotype (HLADR), HLA-DRA (gene 3122)
# Assay name: BSK_CASM3C_HLADR: BioMAP Diversity Plus: CASM3C Assay for Human Leukocyte Antigen - DR isotype (HLADR) Biomarker Activity (AID 2283043);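 also: cell-surface HLA-DR protein level quantified by ELISA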
# Settings: primary human coronary artery smooth muscle cells; actives raise or lower the signal
The source made the active and inactive calls. How the source made its calls: active means hit-call score of the fitted dose curve at least 0.9, where 1 is the maximum; inactive means score below 0.9.

# Compound, AC50
rows = [
    ("CC(C)(c1cc(Br)c(O)c(Br)c1)c1cc(Br)c(O)c(Br)c1", "33.1 µM (active)"),
    ("CC1=CC(=O)/C(=C(/C)O)C(=O)O1", "inactive"),
    ("CC/C(=C(/CC)c1ccc(O)cc1)c1ccc(O)cc1", "inactive"),
    ("CC1(C)NC(=O)N(c2ccc([N+](=O)[O-])c(C(F)(F)F)c2)C1=O", "inactive"),
    ("C[C@]12CC[C@@H]3c4ccc(O)cc4CC[C@H]3[C@@H]1CC[C@H]2O", "inactive"),
    ("c1ccc(C[n+]2cccc3ccccc32)cc1", "inactive"),
    ("CC[C@H](NC(=O)c1cc(F)ccc1NS(=O)(=O)c1cccc2cccnc12)c1ccccc1", "inactive"),
    ("Cc1occc1C(=O)Nc1ccc(C(=O)N2CCC(F)(F)/C(=C\\C(=O)N3CCC(N4CCCCC4)CC3)c3ccccc32)cc1", "inactive"),
    ("CN(C)C(=O)C1(N2CCCCC2)CCN(CC[C@@]2(c3ccc(Cl)c(Cl)c3)CN(C(=O)c3ccccc3)CCO2)CC1", "18.1 µM (active)"),
    ("O=C(O)Cc1cc(I)c(Oc2ccc(O)c(I)c2)c(I)c1", "inactive"),
]

====

# Test target: human Dopamine Transporter (DAT), SLC6A3 (gene 6531)
# Assay name: NVS_TR_hDAT: NovaScreen (NVS) Transporter Assay for human Dopamine Transporter (DAT) (AID 2283374);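 also: activity means loss of bound radioligand signal relative to DMSO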
Results filed as inconclusive are left out. The source made the active and inactive calls. The calls were made as follows: active = hit-call score of the fitted dose curve at least 0.9, where 1 is the maximum; inconclusive = response in the unintended direction; inactive = score below 0.9.
Outcomes: class 1 = active, class 0 = inactive

# Compound, Test target, Group
measured = [
    ("CCCCCCCCCCCC[N+](C)(C)C", "human Dopamine Transporter (DAT), SLC6A3 (gene 6531)", "class 1"),
    ("CN(C)C(=O)C1(N2CCCCC2)CCN(CC[C@@]2(c3ccc(Cl)c(Cl)c3)CN(C(=O)c3ccccc3)CCO2)CC1", "human Dopamine Transporter (DAT), SLC6A3 (gene 6531)", "class 1"),
    ("CCCCCCCCOC(=O)c1cc(O)c(O)c(O)c1", "human Dopamine Transporter (DAT), SLC6A3 (gene 6531)", "class 1"),
    ("CC/C(=C(/CC)c1ccc(O)cc1)c1ccc(O)cc1", "human Dopamine Transporter (DAT), SLC6A3 (gene 6531)", "class 1"),
    ("CN(C)c1ccc(C(=C2C=CC(=[N+](C)C)C=C2)c2ccc(N(C)C)cc2)cc1", "human Dopamine Transporter (DAT), SLC6A3 (gene 6531)", "class 1"),
    ("c1ccc(C[n+]2cccc3ccccc32)cc1", "human Dopamine Transporter (DAT), SLC6A3 (gene 6531)", "class 1"),
    ("C[C@]12CC[C@@H]3c4ccc(O)cc4CC[C@H]3[C@@H]1CC[C@H]2O", "human Dopamine Transporter (DAT), SLC6A3 (gene 6531)", "class 1"),
    ("CCCCCCCCCC(=O)O", "human Dopamine Transporter (DAT), SLC6A3 (gene 6531)", "class 0"),
    ("CCN(CC)C(=O)c1cc(S(=O)(=O)Cc2ccccc2)c(N2CCC(c3ccccc3)CC2)cc1N(CC)CCN(C)C", "human Dopamine Transporter (DAT), SLC6A3 (gene 6531)", "class 1"),
    ("CCOC(=O)O[C@H](C)OC(=O)c1ccc2c(c1)cc(C(=O)NC1CCN(C(C)C)CC1)n2Cc1cc(-c2ccc(Cl)s2)on1", "human Dopamine Transporter (DAT), SLC6A3 (gene 6531)", "class 1"),
    ("COc1ccc2cc(S(=O)(=O)N[C@H](CC(=O)N[C@H](Cc3ccc(CN4[C@H](C)CCC[C@@H]4C)cc3)C(=O)N(C)C(C)C)c3ccc4c(c3)OCO4)ccc2c1", "human Dopamine Transporter (DAT), SLC6A3 (gene 6531)", "class 1"),
    ("CN(C[C@@H](CC[N+]12CCC(C3CCCCC3)(CC1)CC2)c1ccc(Cl)c(Cl)c1)C(=O)c1cc(C(F)(F)F)cc(C(F)(F)F)c1", "human Dopamine Transporter (DAT), SLC6A3 (gene 6531)", "class 1"),
    ("O=c1[nH]sc2ccccc12", "human Dopamine Transporter (DAT), SLC6A3 (gene 6531)", "class 1"),
    ("Clc1cc(Cl)c2c(c1)N=C1CCCCCN1C2", "human Dopamine Transporter (DAT), SLC6A3 (gene 6531)", "class 1"),
    ("Oc1ccc2ccccc2c1", "human Dopamine Transporter (DAT), SLC6A3 (gene 6531)", "class 1"),
    ("NCc1cccc(C2CCN(C(=O)c3ccc(C#Cc4ccccc4F)o3)CC2)c1", "human Dopamine Transporter (DAT), SLC6A3 (gene 6531)", "class 1"),
]
